Tested on: Target C
Assay: Splicing RT-qPCR panel, Target C canonical junction (CJ) mRNA
Format: cell-based, human
Conditions: Homo sapiens, RT-qPCR panel, canonical junction mRNA; compound concentration having 50% response in CJ decrease; read-out: Target C IC50 (decrease in CJ mRNA levels)
Description: Compounds described herein were used to modulate RNA transcript abundance in cells. The expression of a target mRNA was measured by detecting the formation of an exon-exon junction in the canonical transcript (CJ). A compound mediated exon-inclusion event was detected by observing an increase in formation of a new junction with an alternative exon (AJ). Real-time qPCR assays were used to detect these splicing switches and interrogate the potency of various compounds towards different target genes. […]
Measured IC50 values are reported for all entries that follow.

Solved cases (6 shown):
CN(c1ccc(-c2cc(F)c(-c3cnn(C)c3)c3cn[nH]c23)nn1)C1CC(C)(C)NC(C)(C)C1 [Compound 320] : 1 to 10 µM
CN1CCC2(CC1)CCN2c1ccc(-c2ccc(-c3cn[nH]c3)c3ncsc23)nn1 [Compound 289] : > 10 µM
CN(c1ccc(-c2ccc(-c3cnn(CC4CC4)n3)c3cn[nH]c23)nn1)[C@@H]1C[C@H]2CC[C@@H](C1)N2 [Compound 318] : 1 to 10 µM
CN(c1ccc(-c2ccc(-c3ccn(C)c(=O)c3)c3ncsc23)nn1)C1CC(C)(C)NC(C)(C)C1 [Compound 279] : > 10 µM
CN(c1ncc(-c2ccc(-c3cn[nH]c3)c3ncsc23)nn1)[C@@H]1C[C@H]2CCC[C@@H](C1)N2 [Compound 449] : < 0.1 µM
CN(C)[C@H]1[C@@H]2CN(c3ccc(-c4ccc(-c5cn[nH]c5)c5cn[nH]c45)nn3)C[C@@H]21 [Compound 303] : > 10 µM

Lab note: CN(c1ccc(-c2ccc(-c3cn[nH]c3)c3cn[nH]c23)nn1)[C@@H]1C[C@H]2CCC[C@@H](C1)N2 [Compound 295] gave IC50 of < 0.1 µM

###

tested on: MYB; assay: Splicing RT-qPCR assay, MYB mRNA canonical junction (CJ) and alternative junction (AJ); type: cell-based, human; details: Homo sapiens, 24 h, decrease in CJ mRNA; A673 or K562 cells, 24 hours treatment, RT-qPCR; read-out: MYB CJ IC50
experimental-readout: IC50

CN(c1ccc(-c2ccc(-c3cnn(C)c(=O)c3)c3scnc23)nn1)C1CC(C)(C)NC(C)(C)C1 : 0.1 to 1 µM

Lab note: CNCC1CCN(c2ncc(-c3ccc(-c4cn[nH]c4)c4ncsc34)nn2)C1 (centres unmarked) gave IC50 of > 10 µM

Lab note: c1nc2c(-c3cn[nH]c3)ccc(-c3ccc(N(C4CC4)C4C[C@H]5CC[C@@H](C4)N5)nn3)c2s1 (some centres unmarked) gave IC50 of 0.1 to 1 µM

###

tested on: MYB; experiment: Splicing RT-qPCR assay, MYB mRNA canonical junction (CJ) and alternative junction (AJ); type: cell-based, human; details: Homo sapiens, 24 h, decrease in CJ mRNA; A673 or K562 cells, 24 hours treatment, RT-qPCR; read-out: MYB CJ IC50
pIC50: −log10 of the molar value.
experimental-readout: pIC50

Solved cases (4 shown):
CN(c1ccc(-c2ccc(-n3cccn3)c3cn[nH]c23)nn1)C1CCNCC1 [Compound 264] : < 5.00
Cl.Fc1cc(-c2ccc(NC3CCNCC3)nn2)c2[nH]ncc2c1-c1cn[nH]c1 [Compound 350, hydrochloride] : < 5.00
[2H]C([2H])([2H])N(c1ccc(-c2ccc(-c3cn[nH]c3)c3cn[nH]c23)nn1)[C@@H]1C[C@H]2CCC[C@@H](C1)N2 [Compound 296] : 6.00 to 7.00
[2H]C([2H])([2H])N(c1ccc(-c2ccc(-c3cn[nH]c3)c3cn[nH]c23)nn1)C1CC(C)(C)NC(C)(C)C1 [Compound 292] : 6.00 to 7.00

Lab note: c1nc2c(-c3cn[nH]c3)ccc(-c3ccc(NC4CCNCC4)nn3)c2s1 [Compound 214] gave pIC50 of 5.00 to 6.00

Lab note: CN(c1ncc(-c2ccc(-c3cn[nH]c3)c3ncsc23)nn1)[C@@H]1C[C@]2(C)CC[C@](C)(C1)N2 [Compound 425] gave pIC50 of 5.00 to 6.00

Lab note: CC1(C)CC(Nc2ccc(-c3ccc(-c4cn[nH]c4)c4cn[nH]c34)nn2)CC(C)(C)N1 [Compound 275] gave pIC50 of 6.00 to 7.00

###

assay: Transwell assay for membrane efflux and permeability; format: in vitro ADME, Canine; settings: dog; MDCK-BCRP or MDCKII-MDR1 transwell, test compound 1 μM, 2 hours at 37° C.
Measured Papp at 2 h, 1 μM values are reported for all entries that follow.

Solved cases (6 shown):
CN(c1ccc(-c2ccc(-c3cn[nH]c3)c3cn[nH]c23)nn1)C1CC(C)(C)NC(C)(C)C1 [Compound 137] : < 2 ×10⁻⁶ cm/s
c1nc2c(-c3cn[nH]c3)ccc(-c3ccc(OC4CCNCC4)nn3)c2s1 [Compound 183] : < 2 ×10⁻⁶ cm/s
c1nc2c(-c3cn[nH]c3)ccc(-c3ccc(O[C@@H]4C[C@H]5CC[C@@H](C4)N5)nn3)c2s1 [Compound 184] : < 2 ×10⁻⁶ cm/s
c1cnn(-c2ccc(-c3cnc(N[C@@H]4C[C@H]5CCC[C@@H](C4)N5)nn3)c3cn[nH]c23)c1 [Compound 561] : 2 to 6 ×10⁻⁶ cm/s
CN(c1ccc(-c2ccc(-c3cn[nH]c3)c3cn[nH]c23)nn1)[C@@H]1C[C@H]2CC[C@@H](C1)N2 [Compound 104] : < 2 ×10⁻⁶ cm/s
COc1nc(-c2ccc(N(C)[C@@H]3C[C@H]4CC[C@@H](C3)N4)nn2)ccc1-c1cn[nH]c1 [Compound 906] : < 2 ×10⁻⁶ cm/s

For the next question, use this molecule.
Lab note: COc1nc(-c2ccc(O[C@@H]3C[C@H]4CC[C@@H](C3)N4)nn2)ccc1-c1cnc(C)s1 [Compound 962] gave Papp at 2 h, 1 μM of 2 to 6 ×10⁻⁶ cm/s

###

assay: Transwell assay for membrane efflux and permeability; format: in vitro ADME, Canine; conditions: dog; MDCK-BCRP or MDCKII-MDR1 transwell, test compound 1 μM, 2 hours at 37° C.
Measured efflux ratio at 2 h, 1 μM values are reported for all entries that follow.

Solved cases (4 shown):
CCOc1nc(-c2ccc(OC3CC(C)(C)NC(C)(C)C3)nn2)ccc1-c1cn[nH]c1 : 1.5 to 5
CN(c1ccc(-c2ccc(-c3cn[nH]c3)c(OC(F)F)n2)nn1)[C@@H]1C[C@H]2CC[C@@H](C1)N2 : > 5
CN(c1ccc(-c2ccc(-c3cn[nH]c3)c(C#N)n2)nn1)[C@@H]1C[C@H]2CC[C@@H](C1)N2 : > 5
c1nc2c(-c3cn[nH]c3)ccc(-c3ccc(OC4CCNCC4)nn3)c2s1 : > 5

Lab note: CN(c1ccc(-c2cc(F)c(-c3cnn(C)c3)c3cn[nH]c23)nn1)[C@@H]1C[C@H]2CC[C@@H](C1)N2 gave efflux ratio at 2 h, 1 μM of > 5

###

system: HTT; test: Splicing RT-qPCR assay, HTT mRNA canonical junction (CJ) and alternative junction (AJ); type: cell-based, human; conditions: Homo sapiens, RT-qPCR panel, canonical junction mRNA; compound concentration having 50% response in CJ decrease; read-out: HTT IC50 (decrease in CJ mRNA levels)
pIC50: −log10 of the molar value.
experimental-readout: pIC50

CN1C[C@@H]2CN(c3ccc(-c4ccc(-c5cn[nH]c5)c5ncsc45)nn3)C[C@@H]2C1 [Compound 198] : < 5.00

Lab note: CN(c1ccc(-c2ccc(-n3cccn3)c3[nH]ncc23)nn1)[C@@H]1C[C@H]2CC[C@@H](C1)N2 [Compound 409] gave pIC50 of > 7.00

Lab note: COc1cc(-c2ccc(-c3ccc(N(C)[C@@H]4C[C@H]5CC[C@@H](C4)N5)nn3)c3[nH]ncc23)ccn1 [Compound 364] gave pIC50 of > 7.00

Lab note: CCN(c1ccc(-c2ccc(-c3cn[nH]c3)c3cn[nH]c23)nn1)[C@@H]1C[C@H]2CCC[C@@H](C1)N2 [Compound 297] gave pIC50 of 6.00 to 7.00

###

system: HTT; assay: Splicing RT-qPCR assay, HTT mRNA canonical junction (CJ) and alternative junction (AJ); assay type: cell-based, human; settings: Homo sapiens, RT-qPCR panel, canonical junction mRNA; compound concentration having 50% response in CJ decrease; read-out: HTT IC50 (decrease in CJ mRNA levels)
experimental-readout: IC50

Lab note: CN(c1ccc(-c2ccc(-c3cn[nH]c3)c3cn[nH]c23)nn1)[C@@H]1C[C@H]2CC(F)(F)[C@@H](C1)N2 (stereo in doubt) gave IC50 of < 0.1 µM

Lab note: CC1(C)CC(Oc2ccc(-c3ccc(-c4cn[nH]c4)c4ncsc34)nn2)CCN1 (stereo not shown) gave IC50 of 1 to 10 µM

Lab note: c1nc2c(-c3cn[nH]c3)ccc(-c3ccc(N4CCNC(C5CC5)C4)nn3)c2s1 (stereo not shown) gave IC50 of 1 to 10 µM

Lab note: c1cnn(-c2ccc(-c3cnc(O[C@H]4C[C@H]5COC[C@@H](C4)N5)nn3)c3cn[nH]c23)c1 gave IC50 of > 10 µM
